Values were extracted from patent US10450368.

molecular target: CH505.M5D8gp120293F; test: ELISA
TEST READOUT: LogAUC

Can you share its LogAUC? I mean this binder: CH235.13 (antibody, V domains shown) VH: QVQLVQSGGGVKRPGSTTTISCVASGYSFNDYYIHWVRQAPGQGLEVLGFIDPSNGRTNYAGAFGDRFSMYRDKSMETLYMDLRNLRSDDTAMYYCVRNVGTAGSLLHYDHWGTGSKIIVSS VL: EIVLTQSPATLSASPGERVTLTCRASRGVRNNVAWYQHNVGQSPRLLIYDASTRAPGIPARFSGSASGTEFTLAISSIQSEDFTLYYCHQYNNWWTFGQGTRVDIN 6.53

Then this binder:
What measured LogAUC goes with CH557 (antibody, V domains shown, also called CH235.12; CH557_4A/293i) VH: QVRLAQYGGGVKRLGATMTLSCVASGYTFNDYYIHWVRQAPGQGFELLGYIDPANGRPDYAGALRERLSFYRDKSMETLYMDLRSLRYDDTAMYYCVRNVGTAGSLLHYDHWGSGSPVIVSS VL: EIVLTQSPATLSASPGERVTLTCRASRSVRNNVAWYQHKGGQSPRLLIYDASTRAAGVPARFSGSASGTEFTLAISNLESEDFTVYFCLQYNNWWTFGQGTRVDIK ? 8.2
